Attribute: inhibition
# test_target: Endonuclease III-like protein 1 (Homo sapiens);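 further: enzyme assay tracking NTHL1 cutting and release of a quenched double-stranded DNA oligo substrate, read as fluorescence at 594 nm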
# condition_context: Compound Concentration 1.0 uM, Hit No
endpoint: inhibition (%)

* CC(=O)Nc1cccc(-n2c(=O)n(C3CC3)c(=O)c3c(Nc4ccc(I)cc4F)n(C)c(=O)c(C)c32)c1 | -1.31
* Nc1ncc2c(n1)-c1c([nH]c3ccc(C4CC4)cc13)CCCC2 | 2.18
* CCCOc1ccc([C@H]2[C@H](C(=O)O)[C@@H](c3ccc4c(c3)OCO4)CN2CC(=O)Nc2c(CC)cccc2CC)cc1 | -5.23
* Cn1cc(Cl)c2c(Oc3c(F)cc(Nc4cc(Cl)nc(N)n4)cc3F)ccnc21 | 8.46
* C[C@H](NC(=O)c1cn(C2(C#N)CC2)cn1)C(=O)Nc1nc(-c2cccc(-c3ccn(C)n3)c2)cs1 | -7.2
* COc1cc(N[C@@H]2CCCC[C@]2(O)C(F)(F)F)ccc1F | -3.26
* CNc1nc(Nc2cnn([C@H]3CCN(C4COC4)C[C@@H]3F)c2Cl)ncc1C(F)(F)F | -6.19
* C[C@@H]1CN(c2cc(-c3n[nH]c4ccc(OC5(C)CC5)cc34)ncn2)C[C@H](C)O1 | -1.31
* O=C(NOCC1CC1)c1ccc(F)c(F)c1Nc1ccc(I)cc1Cl | 15.4
* CCOc1cc2ncc(C#N)c(Nc3ccc(OCc4cccc(F)c4)c(Cl)c3)c2cc1NC(=O)/C=C/CN(C)C | -5.49
* O=C(NOC[C@H](O)CO)c1ccc(F)c(F)c1Nc1ccc(I)cc1F | 5.67
* CC1=C(C#N)C(c2ccc3c(c2)c(NC(=O)c2ccccc2C)nn3C)C(C#N)=C(C)N1 | 2.88
* CNCc1ccccc1-c1csc([C@H](C)Nc2nc(C)nc3cc(OC)c(OC)cc23)c1 | 2.66
* CC[C@@H]1[C@H](F)C(=O)N[C@@H]1COc1nccc2cc(C(N)=O)c(OC)cc12 | 2.88
* COc1cnccc1Nc1nc(-c2nn(Cc3c(F)cc(OCCO)cc3F)c3ccccc23)ncc1OC | 4.97
* CCOc1cn(-c2ccc(F)cc2C)nc1C(=O)Nc1ccc(Oc2ccnc3cc(OC)c(OC)cc23)c(F)c1 | -2
* Cc1cc(NC(=O)c2cccc(S(F)(F)(F)(F)F)c2)cc(-n2ccn3nc(-c4cccnc4)cc23)c1 | -2
* OCCn1cc(-c2ccc3c(c2)CCC3=NO)c(-c2ccncc2)n1 | 1.48
* C[C@@H]1CCN(C(=O)CC#N)C[C@@H]1N(C)c1ncnc2[nH]ccc12 | 10.6
* Cc1cc(Nc2nccc(C)n2)cc(-c2cnc([C@@]3(O)CC[C@H](C(=O)O)C(C)(C)C3)s2)c1 | -4.56
* Cc1ccc(-c2cnc([C@@]3(O)CC[C@H](C(=O)O)C(C)(C)C3)s2)cc1Nc1cccc(C(F)(F)F)n1 | -6.89
* O=C(c1ccc(F)cc1)N1CC(COc2ccc(Br)cc2)(C(=O)O)C1 | 0.685
* COc1c(OCCCN2CCOCC2)ccc2c1N=C(NC(=O)c1cnc(N)nc1)N1CCN=C21 | 4.97
* Cc1cc(C)c(-n2ccn3nc(-c4cccnc4)cc23)cc1NC(=O)c1cc(C#N)cc(S(F)(F)(F)(F)F)c1 | -3.66
* O[C@]1(C(F)(F)F)CCCC[C@H]1Nc1ccc(F)cc1 | 4.63
* COc1ccccc1Nc1nc(-c2nn(Cc3c(F)cc(OCCCO)cc3F)c3ccccc23)ncc1OC | -4.79
* CNC(=O)Nc1ccc2c(c1)CC[C@@]21OC(=O)N(CC(=O)N(Cc2ccc(F)cc2)[C@@H](C)C(F)(F)F)C1=O | -7.2
* CN(C)C/C=C/C(=O)Nc1cc2c(Nc3ccc(F)c(Cl)c3)ncnc2cc1O[C@H]1CCOC1 | 4.97
* Cc1ccc(C(=O)Nc2cccc(C(F)(F)F)c2)cc1Nc1nc(-c2cccnc2)nc2c1cnn2C | 0.785
* CCN(CC)CCCCNc1ncc2cc(-c3cc(OC)cc(OC)c3)c(NC(=O)NC(C)(C)C)nc2n1 | -4.79
* COC[C@H](NC(=O)c1ccn(S(C)(=O)=O)c1)C(=O)Nc1nc(-c2cccc(-c3ccn(C)n3)c2)cs1 | -3.92
* CC(C)(C)c1cc(NC(=O)Nc2ccc(-c3cn4c(n3)sc3cc(OCCN5CCOCC5)ccc34)cc2)no1 | -3.4
* CN(C)C(=O)Cn1cc(-c2ccc(-c3nnc4ccccn34)cc2)cn1 | -9.68
* O=C(O)[C@H]1[C@H](Cn2nnc3ccccc3c2=O)CC[C@@H]1C(=O)c1ccc(OCCC2CCOCC2)cc1 | 2
* c1ccc(-c2oc3ncnc(NC[C@@H]4CCCO4)c3c2-c2ccccc2)cc1 | 7.06
* C[C@@H](Oc1cc(-n2cnc3ccc(CN4CCN(C)CC4)cc32)sc1C(N)=O)c1ccccc1C(F)(F)F | -6.19

Sourced from ChEMBL document CHEMBL5665443
